Every entry's value here was drawn from patent US7119107B2.

tested-system: human NPY Y5 receptor (Homo sapiens)
Construct: expressed in transfected cells; host or cells: COS-7, CHO and LM(tk-)
Sequence (Q15761 whole entry): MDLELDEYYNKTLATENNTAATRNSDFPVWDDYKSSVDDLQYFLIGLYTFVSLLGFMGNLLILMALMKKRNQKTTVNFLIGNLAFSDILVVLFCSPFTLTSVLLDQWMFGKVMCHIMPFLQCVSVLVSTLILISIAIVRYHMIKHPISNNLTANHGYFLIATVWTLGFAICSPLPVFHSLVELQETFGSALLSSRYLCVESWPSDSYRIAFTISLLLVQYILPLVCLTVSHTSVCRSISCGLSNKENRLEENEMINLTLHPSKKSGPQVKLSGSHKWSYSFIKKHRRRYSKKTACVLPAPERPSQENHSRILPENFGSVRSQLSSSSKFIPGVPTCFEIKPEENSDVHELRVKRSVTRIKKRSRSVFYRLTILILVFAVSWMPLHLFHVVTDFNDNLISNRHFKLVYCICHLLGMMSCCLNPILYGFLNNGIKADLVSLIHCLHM
test-description: NPY binding inhibition test ([125I]peptide YY binding to membranes of NPY Y5 receptor expression cells)
test-parameters: [125I]peptideYY, membranes of NPY Y5 receptor expressing cells, 25° C., 2 hours; read-out: 50% Inhibitory Concentration (IC50) against specific peptide YY binding
Source text: Pharmacological Test 1 (NPY Binding Inhibition Test) cDNA sequence encoding human NPY Y5 receptor (c.f. International patent publication WO96/16542) was cloned into expression vectors pcDNA3, pRc/RSV (made by Invitrogen Inc.) and pCI-neo (made by Promega Inc.). […]
property-measured: IC50 (nM)
Answers are plain numbers, in nM.

What IC50 value was documented for this compound, "C[C@@H]1NC(c2cccc(=O)[nH]2)=N[C@]1(c1ccc(F)cc1)c1ccnc(F)c1" ? 2.8

----------
test-description: Brain/cerebrospinal fluid transport test
Format: in vivo, male SD rats
test-parameters: male, SD, cerebrospinal fluid; rat, one hour after oral administration (10 mg/kg); read-out: concentration in the cerebrospinal fluid
property-measured: concentration at 1 h (nM)
Answers are plain numbers, in nM.

What concentration at 1 h value was documented for this molecule, "C[C@@H]1NC(c2cccc(=O)[nH]2)=N[C@]1(c1ccc(F)cc1)c1ccnc(F)c1" ? 106

----------
test-description: Pharmacokinetics test
Type: in vivo
test-parameters: rat, plasma; male SD rats, oral or intravenous administration, overnight fasting
property-measured: bioavailability (%)
Give bare numbers, in %.

What bioavailability value was documented for this compound, "C[C@@H]1NC(c2cccc(=O)[nH]2)=N[C@]1(c1ccc(F)cc1)c1ccnc(F)c1" ? 51
